- Tested on: LK-2
- MEASUREMENT PROTOCOL: relative viability (nuclei count vs DMSO), 5 days (fraction); higher = more cells survive
- EXPERIMENTAL SETUP: first compound 0.02 µM
REPORTED PROPERTY: relative viability
Lab note: write the figure by itself, no unit.

MOLECULE	TARGET OR SYSTEM	relative viability
CC(=O)O[C@@]12CO[C@@H]1C[C@H](O)[C@@]1(C)C(=O)[C@H](O)C3=C(C)[C@@H](OC(=O)[C@H](O)[C@@H](NC(=O)OC(C)(C)C)c4ccccc4)C[C@@](O)([C@@H](OC(=O)c4ccccc4)[C@H]21)C3(C)C [Docetaxel] + N=C(N)NC(=N)NCCc1ccccc1 [Phenformin] (partner 250 µM)	LK-2	0.124
CC(=O)O[C@@]12CO[C@@H]1C[C@H](O)[C@@]1(C)C(=O)[C@H](O)C3=C(C)[C@@H](OC(=O)[C@H](O)[C@@H](NC(=O)OC(C)(C)C)c4ccccc4)C[C@@](O)([C@@H](OC(=O)c4ccccc4)[C@H]21)C3(C)C [Docetaxel] + CC1(C)CCC(c2ccc(Cl)cc2)=C(CN2CCN(c3ccc(C(=O)NS(=O)(=O)c4ccc(N[C@H](CCN5CCOCC5)CSc5ccccc5)c(S(=O)(=O)C(F)(F)F)c4)cc3)CC2)C1 [Navitoclax] (partner 0.5 µM)	LK-2	0.145

# next molecule below
Task: Please state recorded relative viability (tested on LK-2) of CC(=O)O[C@@]12CO[C@@H]1C[C@H](O)[C@@]1(C)C(=O)[C@H](O)C3=C(C)[C@@H](OC(=O)[C@H](O)[C@@H](NC(=O)OC(C)(C)C)c4ccccc4)C[C@@](O)([C@@H](OC(=O)c4ccccc4)[C@H]21)C3(C)C [Docetaxel] + NC(=O)Nc1cc(-c2cccc(F)c2)sc1C(=O)N[C@H]1CCCNC1 [AZD7762] (partner 0.2 µM)
Output: 0.0712

###

Reported relative viability is given for each of the following molecules.
- Test system: HCC-78
- MEASUREMENT PROTOCOL: relative viability (nuclei count vs DMSO), 5 days (fraction); higher = more cells survive
- EXPERIMENTAL SETUP: first compound 0.253 µM

MOLECULE	TARGET OR SYSTEM	TEST RESULT
O=c1[nH]c2ccccc2n1C1CCN(CCCC(c2ccc(F)cc2)c2ccc(F)cc2)CC1 [Pimozide] + C[C@]1(O)C[C@@H](c2nc(-c3ccc4ccc(-c5ccccc5)nc4c3)c3c(N)nccn32)C1 [Linsitinib] (partner 1 µM)	HCC-78	0.469

Now examine the next entry.
Task: Which relative viability reading was recorded for the molecule Cc1cnc(-c2cnc(NCCNc3ccc(C#N)cn3)nc2-c2ccc(Cl)cc2Cl)[nH]1 + C[C@]1(O)C[C@@H](c2nc(-c3ccc4ccc(-c5ccccc5)nc4c3)c3c(N)nccn32)C1 [Linsitinib] (partner 1 µM) ?
Output: 0.437

###

We begin with a simple list: items and their reported relative viability.
- Test system: NCI-H1437
- MEASUREMENT PROTOCOL: relative viability (nuclei count vs DMSO), 5 days (fraction); higher = more cells survive
- EXPERIMENTAL SETUP: first compound 5 µM
Respond with the number and no other words.

# annotated cases, reported relative viability shown
MOLECULE	relative viability
O=C(O)CCCCC(CCSCc1ccccc1)SCc1ccccc1 (stereo not drawn) [CPI-613] + O=C(c1cc(Cc2n[nH]c(=O)c3ccccc23)ccc1F)N1CCN(C(=O)C2CC2)CC1 [Olaparib] (partner 8 µM)	0.599
O=C(O)CCCCC(CCSCc1ccccc1)SCc1ccccc1 (stereo not drawn) [CPI-613] + CC(=O)c1c(C)c2cnc(Nc3ccc(N4CCNCC4)cn3)nc2n(C2CCCC2)c1=O [Palbociclib] (partner 0.5 µM)	0.284

Alright, here's another molecule for you.
Task: // query relative viability value for entry O=C(O)CCCCC(CCSCc1ccccc1)SCc1ccccc1 (stereo not drawn) [CPI-613] + N=C(N)NC(=N)NCCc1ccccc1 [Phenformin] (partner 250 µM)
Output: 0.237
